Target: c-Jun N-terminal kinase, JNK (Homo sapiens, UniProt P45983+P53779+P45984)
Test: Inhibition of JNK-mediated c-Jun activation in TNFalpha-induced human SW1353 cells preincubated for 30 mins prior to TNFalpha treatment measured after 20 mins
Type: cell-based
QUANTITY MEASURED: IC50 (nM)

CS(=O)(=O)C1CCN(c2cccc3c2cnn3-c2ccnc(N[C@H]3CC[C@H](O)CC3)n2)CC1
290
CS(=O)(=O)N[C@H]1CC[C@H](Nc2nccc(-n3ccc4c(N5CCC(S(C)(=O)=O)CC5)cccc43)n2)CC1
710

(P) CC(=O)N[C@H]1CC[C@H](Nc2nccc(-n3ccc4c(N5CCC(S(C)(=O)=O)CC5)cccc43)n2)CC1
(Q) CS(=O)(=O)N[C@H]1CC[C@H](Nc2nccc(-n3ccc4c(N5CCN(C(=O)CC#N)CC5)cccc43)n2)CC1
Enquiry: In terms of reported IC50, does P or Q have the smaller number? Selection: enter the item's label.
Return: Q
(Q: 200 nM, P: 700 nM)

====

Experiment: Solubility of the compound in phosphate buffer at pH 6.4
Assay type: physicochemical
QUANTITY MEASURED: solubility (µg/mL)

(1) CS(=O)(=O)C1CCN(c2cccc3c2ccn3-c2ccnc(N[C@H]3CC[C@H](O)CC3)n2)CC1
(2) CS(=O)(=O)C1CCN(c2cccc3c2cnn3-c2ccnc(N[C@H]3CC[C@H](O)CC3)n2)CC1
Enquiry: In terms of reported solubility, does 1 or 2 have the smaller number? Selection: enter the item's label.
Return: 2

====

Assay: Half life in rat at 0.5 mg/kg, iv
Type: ADME, organism-based
Set-up: dose 0.5 mg/kg, route intravenous
Settings: in vivo
QUANTITY MEASURED: half-life (min)
Express the result in min but write the number alone.

Enquiry: For the molecule shown here, "CS(=O)(=O)C1CCN(c2cccc3c2ccn3-c2ccnc(N[C@H]3CC[C@H](O)CC3)n2)CC1" , give the reported half-life.
Return: 42

====

Molecular target: Mitogen-activated protein kinase 9 (Homo sapiens)
Sequence (P45984 whole entry): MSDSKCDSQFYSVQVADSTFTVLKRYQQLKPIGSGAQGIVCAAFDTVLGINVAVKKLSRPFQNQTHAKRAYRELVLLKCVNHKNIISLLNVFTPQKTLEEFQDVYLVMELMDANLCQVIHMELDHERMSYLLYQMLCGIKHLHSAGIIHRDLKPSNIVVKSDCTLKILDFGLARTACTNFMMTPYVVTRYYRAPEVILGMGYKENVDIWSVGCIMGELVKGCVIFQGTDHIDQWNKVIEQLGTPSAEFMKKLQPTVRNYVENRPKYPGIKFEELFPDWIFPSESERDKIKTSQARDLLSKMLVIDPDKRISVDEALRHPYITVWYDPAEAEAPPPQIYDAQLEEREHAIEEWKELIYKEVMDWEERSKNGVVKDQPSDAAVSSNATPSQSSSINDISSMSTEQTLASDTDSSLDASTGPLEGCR
Experiment: Inhibition of human JNK2alpha2 using GST-tagged ATF2 as substrate preincubated for 10 mins prior to substrate addition measured after 30 mins by microplate scintillation counting analysis
QUANTITY MEASURED: pIC50
pIC50 field: float, defined as -log10 of concentration (mol/L).

Enquiry: For the compound shown here, "CS(=O)(=O)C1CCN(c2cccc3c2ccn3-c2ccnc(N[C@H]3CC[C@H](O)CC3)n2)CC1" , give the reported pIC50.
Return: 7.70

====

Assay: Permeability from apical to basolateral side in human Caco2 cells
Assay type: ADME, cell-based
Details: Caco-2
QUANTITY MEASURED: Papp A→B (×10⁻⁶ cm/s)

(P) CS(=O)(=O)C1CCN(c2cccc3c2ccn3-c2ccnc(N[C@H]3CC[C@H](C(=O)N4CCn5cnnc5C4)CC3)n2)CC1
(Q) CS(=O)(=O)C1CCN(c2cccc3c2ccn3-c2ccnc(N[C@H]3CC[C@H](O)CC3)n2)CC1
(R) CS(=O)(=O)C1CCN(c2cccc3c2ccn3-c2ccnc(N[C@H]3CC[C@H](C(=O)N4CCC(O)CC4)CC3)n2)CC1
(S) CS(=O)(=O)C1CCN(c2cccc3c2cnn3-c2ccnc(N[C@H]3CC[C@H](O)CC3)n2)CC1
Enquiry: Ranking request: Papp A→B, max to min, items above. Present the labels in the sequence the task asks for.
Return: Q, S, R, P
(Q: 10.5 ×10⁻⁶ cm/s, S: 3.8 ×10⁻⁶ cm/s, R: 0.4 ×10⁻⁶ cm/s, P: 0.1 ×10⁻⁶ cm/s)
